Readings of RTV@D 36 for the listed compounds
System: ER+ MCF-7 breast cancer xenograft
Measurement notes: s.c. ER+ MCF-7 breast cancer xenograft (Examples 7, 11, 27, 28, 44)
Assay type: in vivo, mice
Condition: doses as E21
Quantity measured: RTV@D 36

1. O=C(NS(=O)(=O)c1ccc(NC[C@H]2COCCO2)c([N+](=O)[O-])c1)c1ccc(N2CCN(CC3=C(c4ccc(Cl)cc4)CC4(CCC4)CC3)CC2)cc1Oc1cnc2[nH]ccc2c1 = 3.3
2. CC(=O)c1c(C)c2cnc(Nc3ccc(N4CCNCC4)cn3)nc2n(C2CCCC2)c1=O [Palbociclib, reference compound] = 2.9
3. Cc1c(S(C)(=O)=O)c(-c2cc(F)cc(N3CCN(c4ccc(NS(=O)(=O)c5ccc(N[C@H](CCN6CCC(C(=O)OCCCP(=O)(O)O)CC6)CSc6ccccc6)c(S(=O)(=O)C(F)(F)F)c5)cc4)CC3)c2)c(-c2ccc(Cl)cc2)n1C(C)C = 7.1
4. CC/C(=C(\c1ccccc1)c1ccc(OCCN(C)C)cc1)c1ccccc1 = 1.4
